Test system: PC-3
Experiment: NCI tumour cell line growth inhibition, 48 h
Active and inactive are the calls of the source. No stated cut-off is given here; in the data, active = GI50 up to about 1.1 µM and inactive = higher.

{"columns": ["molecule", "measurement_target", "GI50"],
 "data": [
  ["CC(C)(C)COC(=O)C(C)(C)NC(=O)C(CC(=O)OCc1ccccc1)NC(=O)OCc1ccccc1 (configuration not stated)", "PC-3", "25.7 µM (inactive)"],
  ["Nc1ccc(Cc2ccc(/N=C\\c3ccc(OCc4cccc(COc5ccc(/C=N\\c6ccc(Cc7ccc(N)cc7)cc6)cc5)n4)cc3)cc2)cc1", "PC-3", "> 100 µM (inactive)"],
  ["CCOC(=O)c1c(N2CCCC2)[nH]c(=O)c(C(c2ccc(OC)cc2)c2c(O)c(C(=O)OCC)c(N3CCCC3)[nH]c2=O)c1O", "PC-3", "> 100 µM (inactive)"],
  ["COC(=O)c1cc2c(cc1C(=O)OC)[C@@]1(C)CCCC(C)(C)C1CC2 (some centres not stated)", "PC-3", "14.8 µM (inactive)"],
  ["CC(=O)Oc1ccc2cc(Oc3ccc(Cl)c(Cl)c3)c(=O)oc2c1", "PC-3", "24.7 µM (inactive)"],
  ["O=C(NCCN1CCCCC1)c1cccc(I)c1", "PC-3", "> 100 µM (inactive)"],
  ["c1ccc(NN/N=N/c2ccc(-c3nc4ccccc4[nH]3)cc2)cc1", "PC-3", "26.8 µM (inactive)"],
  ["COc1cc(/C=C/C(=O)OC[C@]23O[C@H]2[C@@H](OC2OC(C)C(O)C(O)C2O)C2C=CO[C@@H](OC4OC(CO)C(O)C(O)C4O)C23)ccc1O (some centres not stated)", "PC-3", "> 100 µM (inactive)"],
  ["O=[N+]([O-])/C(C(Cl)=C(Cl)Cl)=C1\\NCCO1", "PC-3", "> 100 µM (inactive)"],
  ["Cc1csc2c(=O)n(COCc3ccccc3)c(=O)[nH]c12", "PC-3", "> 100 µM (inactive)"],
  ["N#CC12CC3=C(N=C1NC1=C(CCc4ccccc41)C2)c1ccccc1CC3 (configuration not stated)", "PC-3", "2.12 µM (inactive)"],
  ["O=C1CC(NC(=O)C(F)(F)F)c2c(Br)sc(N3CCNCC3)c21 (configuration not stated)", "PC-3", "> 100 µM (inactive)"]
]}

###

System: TK-10
Assay: NCI tumour cell line growth inhibition, 48 h
Active and inactive are the calls of the source. No stated cut-off is given here; in the data, active = GI50 up to about 1.1 µM and inactive = higher.
Classes used: class 1 for active, class 0 for inactive

{"columns": ["compound", "assigned_category"],
 "data": [
  ["CC12OC1(C)C1C(=O)OCC1C2=O (centres undefined)", "class 0"],
  ["CN(N)/N=N/c1[nH]cnc1C(N)=O", "class 0"],
  ["O=C(O)C#CCO", "class 0"],
  ["c1ccc(-c2cs[s+]c2)cc1", "class 0"],
  ["O=C(CC(=O)c1ccncc1)c1ccccc1", "class 0"],
  ["CCOC(=O)/C1=C(\\C)N(Cc2ccccc2)C(=O)c2ccccc2C(=O)c2c(O)ccc(O)c21", "class 0"],
  ["S=C1SC(c2ccc(Cl)cc2)(c2ccc(Cl)cc2)c2ccccc21", "class 0"],
  ["C/C(=N\\NC(=S)N1CCCCCC1)c1nccnc1C", "class 1"],
  ["O=C(/C(Cl)=C/c1ccccc1)c1ccccc1", "class 0"],
  ["O=C(CSCC(=O)N/N=C\\c1cc(Cl)cc(Cl)c1O)N/N=C\\c1cc(Cl)cc(Cl)c1O", "class 0"],
  ["COc1c2c(c(CC=C(C)C)c3oc(=O)c(-c4ccc(O)cc4)c(O)c13)OC(C)(C)C=C2 [LONCHOCARPIC ACID]", "class 0"],
  ["O=c1/c(=C/c2ccc3c(c2)OCO3)sc2nnc(Cc3ccccc3)n12", "class 0"],
  ["O=c1ccc2ccc(O)c3c4c(O)ccc5ccc(=O)c(c1c23)c54", "class 0"],
  ["N=C(N)N/N=C/c1c(-c2cccc([N+](=O)[O-])c2)nc2n1CCS2", "class 0"],
  ["C[C@@H]1[C@@H](c2ccccc2)O[B-](c2ccccc2)(c2ccccc2)[N+]1(C)C", "class 0"],
  ["N#CC(Cc1ccccc1Br)N(CCC1=CCCCC1)C(c1ccccc1)c1ccccc1 (centres undefined)", "class 0"],
  ["COc1ccc2c(c1)CCc1cc(C(N)=O)c3nnnn3c1-2", "class 0"],
  ["C/C(CC(=O)Nc1cc(C)ccc1C)=N/N=C(N)N", "class 0"],
  ["Cc1csc2c(=O)n(COCc3ccccc3)c(=O)[nH]c12", "class 0"],
  ["CC(=O)N/N=C1/CC[C@@]2(C)C(=CC[C@H]3C4CCC(C(C)CCCC(C)C)[C@@]4(C)CCC32)C1(C)C (some centres undefined)", "class 0"],
  ["CC(=O)OCCn1c(Cc2ccc(C)cc2)nn(C(C)=O)c1=O", "class 0"],
  ["CN(C)CN1CSC(=S)N(CN(C)C)C1", "class 0"],
  ["O=C(Nc1ccc(Cl)cc1)NS(=O)(=O)c1coc2ccccc2c1=O", "class 0"],
  ["CC(Cn1c2c3ccccc3ccc2c2oc(=O)c3ccccc3c21)N(C)C (centres undefined)", "class 0"],
  ["COc1ccc2c(=O)c(-c3cc(OC)c(OC)cc3OC)coc2c1", "class 0"],
  ["COc1cccc(/N=N/C(=NNC(=O)c2ccc(C)cc2)c2ccc(N(C)C)cc2)c1", "class 0"],
  ["O=C(c1ccccc1Br)C(F)(F)F", "class 0"],
  ["C(=N\\c1ccc(-c2nc3ccccc3s2)cc1)/c1cccs1", "class 0"],
  ["Cc1cc(S(=O)(=O)Nc2nnc3c(C(F)(F)F)cc(Cl)cn23)c(S)cc1Cl", "class 0"]
]}

###

System: DU-145
Assay: NCI tumour cell line growth inhibition, 48 h
Activity calls are given as the source filed them. Cut-off read from the data, not from the text of the source: active = GI50 up to about 1.1 µM and inactive = higher.
Items are presented alongside their recorded GI50.
measurement_kind: GI50

{"columns": ["molecule", "measurement_target", "value_reported"],
 "data": [
  ["COc1cc2c3c(n(C)c(=O)c2cc1OC)-c1cc2c(cc1C3=O)OCO2", "DU-145", "12 µM (inactive)"],
  ["CC(=O)Oc1ccc2cc(Oc3ccc(Cl)c(Cl)c3)c(=O)oc2c1", "DU-145", "39.3 µM (inactive)"],
  ["CCOC(=O)[C@@H](NC(=O)OC(C)(C)C)[C@@H](O)C(=O)OCC", "DU-145", "> 100 µM (inactive)"],
  ["CC(C)(C)COC(=O)C(C)(C)NC(=O)C(CC(=O)OCc1ccccc1)NC(=O)OCc1ccccc1 (configuration not stated)", "DU-145", "62.2 µM (inactive)"],
  ["CN(C)/C=N/Cc1ccc2c(c1)OCO2", "DU-145", "> 100 µM (inactive)"],
  ["Cc1cnc(/N=c2\\sc(C)cn2-c2ncc(C)s2)s1", "DU-145", "> 100 µM (inactive)"],
  ["O=c1[nH]c(=O)n(Cc2ccccc2CO)cc1Sc1ccccc1", "DU-145", "58.9 µM (inactive)"],
  ["COC(=O)C(Cc1c(C2Nc3ccccc3C2CC(NC(=O)CNC(C)=O)C(=O)OC)[nH]c2ccccc12)NC(=O)CNC(C)=O (configuration not stated)", "DU-145", "> 100 µM (inactive)"],
  ["O=C(N1CCOCC1)C1(c2ccccc2)CCNCC1", "DU-145", "> 100 µM (inactive)"],
  ["C=CCSC1=N/C(=C\\c2ccco2)C(=O)N1CC=C", "DU-145", "90.4 µM (inactive)"],
  ["N#CCc1n[nH]c2nc(SCc3ccccc3)nc(N3CCCCC3)c12", "DU-145", "18.2 µM (inactive)"],
  ["CN(/N=C1\\C(=O)Nc2ccccc21)c1ccccc1", "DU-145", "> 100 µM (inactive)"],
  ["Cc1ccc(Nc2nc3ccccc3nc2NS(=O)(=O)c2ccc(N)cc2)cc1", "DU-145", "97.9 µM (inactive)"],
  ["S=C1SC(c2ccc(Cl)cc2)(c2ccc(Cl)cc2)c2ccccc21", "DU-145", "55.1 µM (inactive)"],
  ["Cc1ccc(Cl)c2c1NC(=O)/C2=N\\Nc1ccccc1[N+](=O)[O-]", "DU-145", "47.1 µM (inactive)"],
  ["COC(=O)NNC(c1ccc(Cl)cc1)c1ccc(Cl)cc1", "DU-145", "31 µM (inactive)"],
  ["N#Cc1c(=O)c2cccnc2n2c1[nH]c1ccccc12", "DU-145", "> 100 µM (inactive)"]
]}

###

Test system: HL-60
Experiment: NCI tumour cell line growth inhibition, 48 h
Activity calls are given as the source filed them. Rule as the data show it: active = GI50 up to about 1.1 µM and inactive = higher.
Classes used: t (active), f (inactive)

{"columns": ["compound", "assigned_category"],
 "data": [
  ["O=C(/C=C/c1cccc(Br)c1)c1ccc(Cl)cc1", "f"],
  ["N#Cc1cccc2c1Sc1ccccc1N2", "f"],
  ["COc1cc(O)c(C(=O)/C=C/c2ccc(O)cc2)cc1Oc1ccc(/C=C/C(=O)c2ccc(O)cc2O)cc1", "f"],
  ["O=C(NC1CCCCC1)NS(=O)(=O)c1ccc2c(c1)CCC2 [GLYHEXAMIDE]", "f"],
  ["CNC(=O)N(CCC#N)CCN(C(=O)N(C)C)c1ccccc1", "f"],
  ["CC(C)=CCC/C(C)=C/COc1c2ccoc2cc2oc(=O)ccc12", "f"],
  ["Cc1nc(Nc2ccc(Cl)c(Cl)c2)sc1C(/C=C/c1ccc2c(c1)OCO2)=N/Nc1ccc([N+](=O)[O-])cc1[N+](=O)[O-]", "f"],
  ["CCOC(=O)CNC(SC)=C(C#N)C#N", "f"],
  ["CCOC(=O)C1CCCN1C(=O)c1ccccc1Cl (configuration not stated)", "f"],
  ["C[C@@H](c1ccccc1)N1CN(C(=O)OCc2ccccc2)C(C)(C)CC1=O", "f"],
  ["NC(=S)N1N=C(c2ccccc2O)CC1c1ccccc1 (configuration not stated)", "f"],
  ["C/C(=N\\O)c1cccc(Nc2nc3ccccc3c3occc23)c1", "f"],
  ["COc1cc(/C=C/C2=NN(c3cccc(S(=O)(=O)O)c3)C3(C2)C(Cl)C(=O)N3c2nc3ccccc3s2)ccc1O (configuration not stated)", "f"],
  ["CSc1[nH]nc(N)c1C(=O)Nc1ccc(C)cc1", "f"],
  ["Cc1cc(Cc2c(F)c(F)c(Cc3cc(C)no3)c(F)c2F)on1", "f"],
  ["Cc1ccc(C(O)c2cnc(C)n2Cc2ccccc2)cc1 (configuration not stated)", "f"],
  ["C=C(Br)COc1ccc2c(C)cc(=O)oc2c1", "f"],
  ["Cc1oncc1/N=C1\\C=C(O)C(=O)c2ccccc21", "f"],
  ["CC(=O)O[C@H]1C[C@H](O[C@H]2[C@@H](O)C[C@H](O[C@H]3[C@@H](O)C[C@H](O[C@H]4CC[C@@]5(C)[C@H](CC[C@@H]6[C@@H]5C[C@@H](O)[C@]5(C)[C@@H](C7=CC(=O)OC7)CC[C@]65O)C4)O[C@@H]3C)O[C@@H]2C)O[C@H](C)[C@H]1O[C@@H]1O[C@H](CO)[C@@H](O)[C@H](O)[C@H]1O [LANATOSIDE C]", "t"],
  ["CCCCC[C@@H]1OC(=O)[C@@]2(CC3c4ccccc4C2c2ccccc23)[C@H]1C(=O)OC", "f"],
  ["CCCCCCCCCCCCCC(=O)NCC(OCC)OCC", "f"],
  ["O=P1(O)c2ccccc2CSCc2ccccc21", "f"],
  ["N#Cc1c(=O)c2cccnc2n2c1[nH]c1ccccc12", "f"],
  ["C=CCSC1=N/C(=C\\c2ccco2)C(=O)N1CC=C", "f"],
  ["O=C(c1ccc(Cl)cc1Cl)N(C(=O)N1CCCCC1)c1ccccc1", "f"],
  ["CC(=O)OC(OC(C)=O)n1cc(C=O)c2ccccc21", "f"],
  ["O=C(N/N=C\\C=C\\c1ccc([N+](=O)[O-])o1)C(=O)N/N=C\\C=C\\c1ccc([N+](=O)[O-])o1", "f"],
  ["COc1ccccc1-c1cc(=O)c2ccccc2[nH]1", "f"],
  ["CCOC(=O)Cc1nc2c(N)ncnc2n1C1OC(COC(C)=O)C(OC(C)=O)C1OC(C)=O (configuration not stated)", "f"],
  ["CC[C@H](C)[C@H](NC(=O)N(CCC#N)CCN(CCN(C(=O)N[C@@H](Cc1ccccc1)C(=O)OC)c1ccccc1)C(=O)N[C@H](C(=O)OC)C(C)C)C(=O)OC", "t"],
  ["Cc1ccc2[nH]c3c(c(=O)n(C)c(=O)n3C)c2c1", "f"],
  ["CN1CCc2ccccc2C(C(=O)c2ccc3c(c2)OCO3)C1=O (configuration not stated)", "f"]
]}
